// data source = patent US12110293B2

biological target: glucocorticoid receptor (Homo sapiens); construct: expressed in transfected cells; assay: Agonistic mode of action on the glucocorticoid receptor (CHO-Gal4/GR luciferase reporter cell line); type: cell-based; settings: range class observed in the agonistic assay or the antagonistic assay (CHO-Gal4/GR reporter cells); table does not say which mode applies per example
Sequence (P04150 524-758 limits assumed): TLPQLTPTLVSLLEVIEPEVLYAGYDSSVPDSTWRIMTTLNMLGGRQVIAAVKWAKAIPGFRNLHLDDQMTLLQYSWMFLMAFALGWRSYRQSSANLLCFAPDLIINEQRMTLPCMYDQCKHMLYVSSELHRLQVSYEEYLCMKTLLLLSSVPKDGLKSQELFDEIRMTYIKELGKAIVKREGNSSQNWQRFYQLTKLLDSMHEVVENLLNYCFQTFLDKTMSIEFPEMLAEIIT
Property: IC50 or EC50 (agonist or antagonist mode not specified); scope: individual compounds

# annotated cases, reported IC50 or EC50 (agonist or antagonist mode not specified) shown
# compound, observed result
rows = [
    ("Cc1c[nH]c2c(-c3c(F)cc4c(c3C(F)(F)F)-n3c(C)nnc3C(C)(C)N4)cccc12 [Example 29]", "< 100 nM"),
    ("COc1c(-c2cc(C(F)(F)F)cc3[nH]ccc23)c(F)cc2c1-n1c(C)nnc1C(C)(C)N2 [Example 474]", "100 to 1000 nM"),
    ("Cc1nnc2n1-c1c(cc(F)c(-c3cccc4c3cnn4C3CC3)c1F)NC2(C)C [Example 243]", "100 to 1000 nM"),
    ("Cc1c(-c2cc(F)cc3c2ccn3C)c(F)cc2c1-n1c(C)nnc1C(C)(C)N2 [Example 518]", "< 100 nM"),
    ("COCCn1ccc2c(-c3c(F)cc4c(c3OC)-n3c(C)nnc3C(C)(C)N4)cccc21 [Example 281]", "100 to 1000 nM"),
    ("Cc1nnc2n1-c1c(cc(Cl)c(-c3cccc4c3ccn4S(C)(=O)=O)c1F)NC2(C)C [Example 284]", "100 to 1000 nM"),
]

INPUT: Report IC50 or EC50 (agonist or antagonist mode not specified) for Cc1c(-c2cccc3c2ccn3S(C)(=O)=O)ccc2c1-n1c(C)nnc1C(C)(C)N2 [Example 450] please.
OUTPUT: 100 to 1000 nM
